This collection of values is drawn from ChEMBL document CHEMBL5584223.

# testProtocol: Ratio of drug concentration in rat brain to plasma measured after 0.5 hrs by LC-MS/MS analysis
# Format: ADME
# settings: read-out: BPR
property: Kp at 0.5 h

INSERT INTO results (compound, experimentalresult) VALUES
  ('CCCCC(OC(=O)CN(C)C)c1ccccc1C(=O)Oc1ccc(/C=C/C(=O)OC[C@@H]2OC(O)[C@@H](O)[C@H](O)[C@H]2O)cc1OC (stereo partly specified)', 1.99);

---

Here, each record is paired with measured logP data.
# testProtocol: Lipophilicity, logP of compound
# Assay type: physicochemical
# settings: octanol/water
property: logP

INSERT INTO results (compound, property, experimentalresult) VALUES
  ('COC(=O)[C@H]1O[C@@H](Oc2cc3oc(-c4ccc(OCCCCOC(=O)C5=CCc6cc(OC)ccc6N5C)cc4)cc(=O)c3c(O)c2O)[C@H](O)[C@H](O)[C@H]1O (single isomer, unassigned)', 'logP', 1.76),
  ('O=C(O)[C@H]1O[C@@H](Oc2cc3oc(-c4ccc(O)cc4)cc(=O)c3c(O)c2O)[C@H](O)[C@@H](O)[C@@H]1O', 'logP', 0.015);

---

# testProtocol: Ratio of drug concentration in rat brain to plasma measured after 6 hrs by LC-MS/MS analysis
# Type: ADME
# settings: read-out: BPR
property: Kp at 6 h

INSERT INTO assay_data (compound, experimentalresult) VALUES
  ('CCCCC(OC(=O)CN(C)C)c1ccccc1C(=O)Oc1ccc(/C=C/C(=O)OC[C@@H]2OC(O)[C@@H](O)[C@H](O)[C@H]2O)cc1OC (stereo partly specified)', 4.8);

---

# testProtocol: Cmax in Sprague-Dawley rat at 12.5 mg/kg, iv measured for 24 hrs by LC-MS/MS analysis
# Format: ADME, organism-based
# settings: in vivo
property: Cmax

INSERT INTO assay_data (structureassmiles, experimentalresult) VALUES
  ('O=P([O-])([O-])Oc1ccc(-c2cc(=S)ss2)cc1.[Na+].[Na+]', '3330 ng/mL');

---

# System: Platelet
# testProtocol: Inhibition of AA-induced platelet aggregation in New Zealand White rabbit
# Format: functional, cell-based
# settings: Oryctolagus cuniculus
pIC50: −log10 of the molar value.
property: pIC50

INSERT INTO results (structureassmiles, property, experimentalresult) VALUES
  ('CCCC[C@H]1OC(=O)c2ccccc21', 'pIC50', 6.38),
  ('CCCC[C@H](OC(=O)CN1CCC(O[N+](=O)[O-])CC1)c1ccccc1C(=O)OCCCCCCOc1ccc(-c2cc(=S)ss2)cc1', 'pIC50', 6.96);

---

# testProtocol: Solubility of compound in PBS at pH 7.4
# Format: physicochemical
property: solubility (µg/mL)

INSERT INTO results (molecule, property, experimentalresult) VALUES
  ('COC(=O)[C@H]1O[C@@H](Oc2cc3oc(-c4ccc(OCCCCOC(=O)C5=CCc6cc(OC)ccc6N5C)cc4)cc(=O)c3c(O)c2O)[C@H](O)[C@H](O)[C@H]1O (single isomer, unassigned)', 'solubility', 183);
